- Test system: CUG-BP2 RRM3 wild-type (UniProt O95319 416-508, Y508W)
- Sequence (O95319 416-508 Y508W): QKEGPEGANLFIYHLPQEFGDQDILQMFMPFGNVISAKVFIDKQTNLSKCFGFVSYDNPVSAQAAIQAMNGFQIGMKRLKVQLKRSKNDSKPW
- Run description: NMR 15N-HSQC titration; protein mutant series; 20 mM K phosphate pH 5.8, 10 mM NaCl, 0.1% beta-mercaptoethanol, 25 C (NMR titrations and ITC); hnRNP A1: 10 mM Na phosphate pH 6.5, 10 mM beta-mercaptoethanol
- Test parameters: protein: recombinant

# Binder, Kd / µM
data = [
    ("UUUAA (ssRNA)", 62),
]
